- System: PPARg:RXRa 90nM:30nM, anti-RXR (NR concentration 90 nM, RXRa partner concentration 30 nM)
- test details: PBM binding z-score (relative to random genomic background probes); higher = stronger binding; sequences stand for … in GC…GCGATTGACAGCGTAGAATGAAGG
property: PBM binding z-score

[[record]]
residue_codes = "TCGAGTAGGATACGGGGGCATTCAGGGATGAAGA"
property = "PBM binding z-score"
measurement = 2.53

[[record]]
residue_codes = "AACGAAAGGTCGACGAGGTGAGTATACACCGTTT"
property = "PBM binding z-score"
measurement = 2.48

[[record]]
residue_codes = "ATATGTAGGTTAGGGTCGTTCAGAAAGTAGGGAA"
property = "PBM binding z-score"
measurement = 4.12

